Hello, the source for this data is PubChem BioAssay (NCI), in case you need it.

Test system: A498 renal
Assay: NCI tumour cell line growth inhibition, 48 h
So I've got a bunch of compounds here, and I need their TGI values.

Some compounds with recorded TGI:
query_smiles=O=C(O)CCNc1ncnc2nc[nH]c12 result="> 100 µM"
query_smiles=NS(=O)(=O)c1ccc(NC(=S)/N=C/C2=C(O)c3ccccc3C2=O)cc1 result="> 100 µM"

Shifting focus to the compound that follows.
[Q] Please give the measured TGI for this compound: `CSc1nc(SC)c2c(C#N)[nH]nc2n1`
[A] > 100 µM

---

Test system: NCI-H522 lung
Test: NCI tumour cell line growth inhibition, 48 h
READOUT: TGI

Some compounds with recorded TGI:
query_smiles=CCN(CC)CCNc1nc(N)c(C#N)c(C#N)c1C#N result="> 10 µM"
query_smiles=COc1cc(Cl)cc(-c2nn(-c3cccc(NC(=O)c4ccc(N5CCOCC5)c(C(F)(F)F)c4)c3)cc2-c2ccncc2)c1 result="> 100 µM"

Shifting focus to the compound that follows.
[Q] Please give the measured TGI for this compound: `CC(=O)Nc1ccc(-c2csc(Nc3cccc(-c4csc(C)n4)c3)n2)cc1`
[A] > 28 µM
